Target: T1, human EphA2 (Homo sapiens, UniProt P29317)
T1 construct: a protein of the extracellular region of each human Eph receptor fused with the SEAP protein and the His tag; made in house; host or cells: Expi293F cells (culture supernatant)
T1 sequence (P29317 24-537 limits assumed): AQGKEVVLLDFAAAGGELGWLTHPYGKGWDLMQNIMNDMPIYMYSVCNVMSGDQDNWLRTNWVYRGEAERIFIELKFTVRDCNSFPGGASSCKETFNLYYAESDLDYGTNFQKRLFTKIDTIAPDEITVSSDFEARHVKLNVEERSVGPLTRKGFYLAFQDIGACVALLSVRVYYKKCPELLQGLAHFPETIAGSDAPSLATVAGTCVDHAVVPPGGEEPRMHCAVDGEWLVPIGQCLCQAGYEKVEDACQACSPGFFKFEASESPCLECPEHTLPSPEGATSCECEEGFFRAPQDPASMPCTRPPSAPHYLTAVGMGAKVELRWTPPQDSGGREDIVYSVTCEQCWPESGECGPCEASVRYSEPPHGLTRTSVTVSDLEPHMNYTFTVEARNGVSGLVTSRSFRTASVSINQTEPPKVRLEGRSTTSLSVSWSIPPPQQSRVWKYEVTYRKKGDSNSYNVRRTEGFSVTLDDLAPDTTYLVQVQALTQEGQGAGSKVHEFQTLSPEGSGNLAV
Assay: Selectivity ELISA of humanized antibodies for human Eph receptor
Type: binding
Settings: coated protein 1 nM
readoutName: hEphA2-SEAP-: absorbance at 450 nm, percentage with respect to hEphA4-SEAP-His as 100%

molecule	observedMeasurement
82 (antibody, V domains shown, constant regions without entry; synthetic humanized antibody light chain variable region sequence; synthetic humanized antibody heavy chain variable region sequence) VL: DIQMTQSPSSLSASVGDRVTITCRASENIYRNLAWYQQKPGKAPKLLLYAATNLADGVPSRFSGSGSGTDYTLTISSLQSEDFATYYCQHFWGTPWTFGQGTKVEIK VH: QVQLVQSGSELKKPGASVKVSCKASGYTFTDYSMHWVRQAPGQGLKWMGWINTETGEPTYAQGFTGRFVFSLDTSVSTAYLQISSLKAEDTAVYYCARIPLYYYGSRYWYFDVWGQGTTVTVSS	5.4%
